Source listed as paper PMC4085075.

Biological target: human estrogen receptor alpha (hERα) (Homo sapiens, UniProt P03372)
Construct: host or cells: human U2-OS osteosarcoma cells
Sequence (P03372 1-595): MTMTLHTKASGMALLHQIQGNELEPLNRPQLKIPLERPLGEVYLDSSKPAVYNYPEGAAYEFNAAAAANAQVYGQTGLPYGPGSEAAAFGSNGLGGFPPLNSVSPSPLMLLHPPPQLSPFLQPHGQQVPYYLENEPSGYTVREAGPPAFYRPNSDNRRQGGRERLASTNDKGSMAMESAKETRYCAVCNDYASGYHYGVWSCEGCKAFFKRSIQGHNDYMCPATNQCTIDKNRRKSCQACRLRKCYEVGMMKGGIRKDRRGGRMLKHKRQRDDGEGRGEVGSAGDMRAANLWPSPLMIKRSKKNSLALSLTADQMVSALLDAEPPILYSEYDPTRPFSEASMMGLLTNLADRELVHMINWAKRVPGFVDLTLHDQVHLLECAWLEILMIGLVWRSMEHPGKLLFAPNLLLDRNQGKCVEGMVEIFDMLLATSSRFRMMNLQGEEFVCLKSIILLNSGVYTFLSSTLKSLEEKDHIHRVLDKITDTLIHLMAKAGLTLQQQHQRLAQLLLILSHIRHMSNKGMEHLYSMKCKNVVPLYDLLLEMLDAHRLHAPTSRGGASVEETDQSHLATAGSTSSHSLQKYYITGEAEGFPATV
Assay: ERα CALUX reporter gene assay in U2-OS cells
Format: cell-based
Settings: ER CALUX Antiestrogen activity EC50, antagonist mode, spiked with 8 pmol/l 17β-estradiol; footnote a: inhibition of U2-OS cell growth at higher concentrations
Procedure: Briefly, different resin types of food packaging were migrated with food simulants for 10 days at 60°C. […] From every sample two independent migrates were prepared, subsequently concentrated by solid phase extraction and tested in the bioassays. […] Assay procedure was conducted as previously described by Sonneveld et al. with modifications. […] This was followed by measuring the luciferase activity of each well using a multilabel reader (Victor^3, Perkin Elmer).
assay-metric: EC50

[ask] Can you look up EC50 on human estrogen receptor alpha (hERα) (Homo sapiens, UniProt P03372) for CC(C)(c1ccccc1)c1ccc(O)c(C(C)(C)c2ccccc2)c1 ?
[reply] > 20 µM
